Source of measurements: ChEMBL document CHEMBL4387722

- Target Under Test: UniProtKB P18031
- Sequence (P18031 whole entry): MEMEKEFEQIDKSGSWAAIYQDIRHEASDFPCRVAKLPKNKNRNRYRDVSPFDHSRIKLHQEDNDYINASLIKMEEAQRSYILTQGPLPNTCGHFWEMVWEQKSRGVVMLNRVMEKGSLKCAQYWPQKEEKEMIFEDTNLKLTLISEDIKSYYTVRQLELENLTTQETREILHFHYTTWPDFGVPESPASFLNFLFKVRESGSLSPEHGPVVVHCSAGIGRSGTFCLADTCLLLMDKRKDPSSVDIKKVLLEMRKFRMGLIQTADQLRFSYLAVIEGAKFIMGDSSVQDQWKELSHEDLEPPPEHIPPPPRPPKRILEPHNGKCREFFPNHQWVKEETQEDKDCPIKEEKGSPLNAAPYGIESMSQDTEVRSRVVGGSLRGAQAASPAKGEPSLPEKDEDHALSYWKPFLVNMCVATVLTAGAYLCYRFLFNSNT
Entries and their measured IC50 follow.
Your answer should be a plain number; it is taken to be in µM.

Let me check: Cc1ccccc1S(=O)(=O)Nc1ccc2oc(-c3ccccc3)nc2c1 , system UniProtKB P18031, measured IC50 is 41
